Would you kindly list Bliss excess for each of these compounds?
Tested on: EW-3 (Ewing's Sarcoma);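 note: after 72 h of two-drug dosing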
Assay: Bliss excess, mean over the matrix (fraction); higher = more synergy
# answer = number (no unit)

QUERY: What measured Bliss excess is associated with Cc1cc2ncnn2cc1Nc1ncc2c(n1)n(C1CCOCC1)c(=O)n2C [AZD7648] + O=C(c1cc(Cc2n[nH]c(=O)c3ccccc23)ccc1F)N1CCN(C(=O)C2CC2)CC1 [Olaparib] (first compound max 10 µM, 7x7, partner max 10 µM) on EW-3 (Ewing's Sarcoma)?
RESULT: -0.0743

QUERY: What measured Bliss excess is associated with C=CCn1c(=O)c2cnc(Nc3ccc(N4CCN(C)CC4)cc3)nc2n1-c1cccc(C(C)(C)O)n1 [AZD1775] + C[C@@H]1COCCN1C2=NC(=NC(=C2)C3(CC3)[S@](=N)(=O)C)C4=C5C=CNC5=NC=C4 [AZD6738] (first compound max 1 µM, partner max 10 µM) on EW-3 (Ewing's Sarcoma)?
RESULT: -0.131

QUERY: What measured Bliss excess is associated with CN(C)CCCOc1ccc(-c2ccc3ncc4c(c3c2)n(C2CCOCC2)c(=O)n4C)cn1 [AZD0156] + C=CCn1c(=O)c2cnc(Nc3ccc(N4CCN(C)CC4)cc3)nc2n1-c1cccc(C(C)(C)O)n1 [AZD1775] (first compound max 1 µM, partner max 1 µM) on EW-3 (Ewing's Sarcoma)?
RESULT: 0.002

QUERY: What measured Bliss excess is associated with N#Cc1cnc(Nc2cc(NC[C@H]3CNCCO3)c(C(F)(F)F)cn2)cn1 [SRA737] + C=CCn1c(=O)c2cnc(Nc3ccc(N4CCN(C)CC4)cc3)nc2n1-c1cccc(C(C)(C)O)n1 [AZD1775] (first compound max 10 µM, partner max 1 µM) on EW-3 (Ewing's Sarcoma)?
RESULT: 0.0086

QUERY: What measured Bliss excess is associated with CC(=O)Nc1cccc(-n2c(=O)n(C3CC3)c(=O)c3c(Nc4ccc(I)cc4F)n(C)c(=O)c(C)c32)c1 [Trametinib] + Cc1nc(-c2cn3c(n2)-c2ccc(-c4cnn(C(C)(C)C(N)=O)c4)cc2OCC3)n(C(C)C)n1 [Taselisib] (first compound max 1 µM, 7x7, partner max 10 µM) on EW-3 (Ewing's Sarcoma)?
RESULT: 0.046

QUERY: What measured Bliss excess is associated with N#Cc1cnc(Nc2cc(NC[C@H]3CNCCO3)c(C(F)(F)F)cn2)cn1 [SRA737] + O=c1[nH]cc(F)c(=O)[nH]1 [5-Fluorouracil] (first compound max 10 µM, 7x7, partner max 20 µM) on EW-3 (Ewing's Sarcoma)?
RESULT: -0.0165

QUERY: What measured Bliss excess is associated with CN(CCO)CC[C@H](CSc1ccccc1)Nc1ccc(S(=O)(=O)NC(=O)c2ccc(N3CCC([C@@H](O)c4ccccc4-c4ccc(Cl)cc4)CC3)cc2)cc1S(=O)(=O)C(F)(F)F [AZD4320] + CCN(CCO)CCCOc1ccc2c(Nc3cc(CC(=O)Nc4cccc(F)c4)[nH]n3)ncnc2c1 [AZD2811] (first compound max 1 µM, 7x7, partner max 1 µM) on EW-3 (Ewing's Sarcoma)?
RESULT: 0.0814

QUERY: What measured Bliss excess is associated with C[C@@H](Oc1cc(-c2cnn(C3CCNCC3)c2)cnc1N)c1c(Cl)ccc(F)c1Cl [Crizotinib] + Cn1cnc2c(F)c(Nc3ccc(Br)cc3Cl)c(C(=O)NOCCO)cc21 [Selumetinib] (first compound max 10 µM, 7x7, partner max 10 µM) on EW-3 (Ewing's Sarcoma)?
RESULT: -0.134

QUERY: What measured Bliss excess is associated with Cc1c2c(nn1C)CSCc1cc(n(C)n1)CSc1cc(c3ccccc3c1)OCCCc1c(C(=O)O)n(C)c3c-2c(Cl)ccc13 [AZD5991] + C[C@@H]1COCCN1C2=NC(=NC(=C2)C3(CC3)[S@](=N)(=O)C)C4=C5C=CNC5=NC=C4 [AZD6738] (first compound max 1 µM, 7x7, partner max 10 µM) on EW-3 (Ewing's Sarcoma)?
RESULT: 0.0207

QUERY: What measured Bliss excess is associated with O=C(c1cc(Cc2n[nH]c(=O)c3ccccc23)ccc1F)N1CCN(C(=O)C2CC2)CC1 [Olaparib] + COc1nnc2ccc(N3CCC(c4ccc(OCCN5CCN(C)C(=O)[C@H]5C)cc4)CC3)nn12 [AZD5153] (first compound max 10 µM, 7x7, partner max 1 µM) on EW-3 (Ewing's Sarcoma)?
RESULT: -0.0528

QUERY: What measured Bliss excess is associated with CC1(C)CCC(CN2CCN(c3ccc(C(=O)NS(=O)(=O)c4ccc(NCC5CCOCC5)c([N+](=O)[O-])c4)c(Oc4cnc5[nH]ccc5c4)c3)CC2)=C(c2ccc(Cl)cc2)C1 [Venetoclax] + C1CN(CCC1(C(=O)N[C@@H](CCO)C2=CC=C(C=C2)Cl)N)C3=NC=NC4=C3C=CN4 [Capivasertib] (first compound max 1 µM, 7x7, partner max 3 µM) on EW-3 (Ewing's Sarcoma)?
RESULT: 0.0001

QUERY: What measured Bliss excess is associated with Cn1cnc2c(F)c(Nc3ccc(Br)cc3Cl)c(C(=O)NOCCO)cc21 [Selumetinib] + CC(C)n1c(=O)n(C)c2cnc3cc(F)c(-c4ccc(OCCCN5CCCCC5)nc4)cc3c21 [AZD1390] (first compound max 10 µM, 7x7, partner max 0.3 µM) on EW-3 (Ewing's Sarcoma)?
RESULT: -0.0455

QUERY: What measured Bliss excess is associated with Cc1c2c(nn1C)CSCc1cc(n(C)n1)CSc1cc(c3ccccc3c1)OCCCc1c(C(=O)O)n(C)c3c-2c(Cl)ccc13 [AZD5991] + CC(=O)O[C@H]1C(=O)[C@@]2(C)[C@H]([C@H](OC(=O)c3ccccc3)[C@]3(O)C[C@H](OC(=O)[C@H](O)[C@@H](NC(=O)c4ccccc4)c4ccccc4)C(C)=C1C3(C)C)[C@]1(OC(C)=O)CO[C@@H]1C[C@@H]2O [Paclitaxel] (first compound max 1 µM, 7x7, partner max 3 µM) on EW-3 (Ewing's Sarcoma)?
RESULT: -0.0365

// data source = the supplement of paper PMC11061612
